Target protein (sequence): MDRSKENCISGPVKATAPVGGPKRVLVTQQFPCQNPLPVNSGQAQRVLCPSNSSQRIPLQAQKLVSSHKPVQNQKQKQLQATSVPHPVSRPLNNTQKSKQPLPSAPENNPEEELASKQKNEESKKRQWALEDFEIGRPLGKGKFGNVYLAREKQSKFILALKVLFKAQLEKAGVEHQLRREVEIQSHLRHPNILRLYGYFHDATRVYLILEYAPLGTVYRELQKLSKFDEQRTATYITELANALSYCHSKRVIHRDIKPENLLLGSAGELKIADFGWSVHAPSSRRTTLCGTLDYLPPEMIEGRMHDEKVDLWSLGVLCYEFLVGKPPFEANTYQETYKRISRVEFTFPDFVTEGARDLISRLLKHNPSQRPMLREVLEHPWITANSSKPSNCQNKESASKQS
endpoint: Kd (µM)
Please reply with the bare figure in µM and do not write the unit itself.

INPUT: Which Kd value is on record for Brc1cccc(Nc2ncnc3[nH]ccc23)c1 ?
OUTPUT: 3.4
